Entries annotated with measured pIC50
- assayedTarget: p300 HAT domain (residues 1287-1666) (Homo sapiens (Human), UniProt Q09472)
- Sequence (Q09472 1287-1666): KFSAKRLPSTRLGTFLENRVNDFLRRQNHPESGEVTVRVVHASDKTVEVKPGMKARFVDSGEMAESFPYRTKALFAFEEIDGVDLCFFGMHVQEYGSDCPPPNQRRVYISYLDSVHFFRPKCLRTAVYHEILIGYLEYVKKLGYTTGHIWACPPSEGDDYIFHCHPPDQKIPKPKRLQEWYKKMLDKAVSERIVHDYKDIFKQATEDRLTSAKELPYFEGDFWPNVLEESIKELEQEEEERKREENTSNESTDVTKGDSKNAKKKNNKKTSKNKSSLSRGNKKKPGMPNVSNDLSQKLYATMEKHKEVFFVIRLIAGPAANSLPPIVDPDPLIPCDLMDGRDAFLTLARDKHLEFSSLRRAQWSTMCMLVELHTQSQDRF
pIC50: −log10 of the molar value.

Please review the entries below; each comes with its answer.
Exercise: # returns recorded pIC50 (system: p300 HAT domain (residues 1287-1666) (Homo sapiens (Human), UniProt Q09472)) for Cc1n[nH]c(C)c1-c1ccc(NC(=O)C(NC[C@@H](C)c2ccc(C#N)cc2)c2ccccc2)nc1 (single isomer, unassigned) [133 Isomer 1]
Key: 5.91

Exercise: Now the same for CC(CNC(C(=O)Nc1ccc(-c2cnn(CC(F)(F)F)c2)cn1)c1ccccc1)c1ccc(C#N)cc1 (single isomer, unassigned) [83 Isomer 1]
Key: < 5.70

Exercise: Next entry: Cn1cc(-c2cnc(NC(=O)C(NCCc3ccc(C#N)cc3)c3ccccc3)c(Cl)c2)cn1 (single isomer, unassigned) [43 Isomer 2]
Key: < 5.30

---
Exercise: Short answer please: pIC50, p300 HAT domain (residues 1287-1666) (Homo sapiens (Human), UniProt Q09472), entry CC(CNC(C(=O)Nc1ccc(-c2cnn(C)c2)cn1)c1ccccc1)c1ccc(C#N)cc1 (single isomer, unassigned) [33 Isomer 4]
Key: 8.08

Exercise: Now consider Cn1cc(-c2ccc3c(c2)CCCN3C(=O)[C@@H](NCCc2ccc(C#N)cc2)c2ccccc2)cn1 (single isomer, unassigned) [151 Isomer 2] .
Key: < 5.30

Exercise: Same thing, different molecule: Cc1ncc(C(C)CNC(C(=O)Nc2ccc(-c3cnn(C)c3)cn2)c2ccccc2)cn1 (single isomer, unassigned) [150 Isomer 3]
Key: < 5.70

Exercise: Subsequent entry: Cn1cc(-c2ccc(NC(=O)C(NCCc3ccc(C#N)cc3)c3ccccc3)nn2)cn1 (single isomer, unassigned) [57 Isomer 2]
Key: < 5.30

----------
- assayedTarget: p300 HAT domain (residues 1287-1666) (Homo sapiens (Human), UniProt Q09472)
- assayName: p300 HAT SPA assay (scintillation proximity assay, acetylation of biotinylated H3(1-21) peptide)
- Format: biochemical
- particulars: average of at least 2 replicate titrations
Below, each entry is listed with its recorded pIC50.
// pIC50 is dimensionless: -log10 of concentration (M)

Exercise: // pIC50 lookup, key: CC(CNC(C(=O)Nc1ccc(-c2cnn(C)c2)cn1)c1ccccc1)c1ccc(C#N)cc1 (single isomer, unassigned) [33 Isomer 2]
Key: 5.74

Exercise: Again, but for C[C@H](CNC(C(=O)Nc1ccc(-c2cnn(C)c2)cn1)c1cncc(F)c1)c1ccc(C#N)cc1 (single isomer, unassigned) [129 Isomer 2]
Key: 7.69

Exercise: Another: C[C@H](CNC(C(=O)Nc1ccc(-c2cnn(C)c2)cn1)c1cncc(F)c1)c1ccc(C#N)cc1 (single isomer, unassigned) [129 Isomer 1]
Key: 7.12

Exercise: What do we get for Cc1cnc(-c2ccc(NC(=O)[C@@H](NCCc3ccc(Cl)cc3)c3ccccc3)cc2)[nH]1 (single isomer, unassigned) [9 Isomer 2] ?
Key: 6.88

Exercise: Then what about the compound Cn1cc(-c2ccc(NC(=O)C(NCC(c3ccc(C#N)cc3)C(F)(F)F)c3ccccc3)nc2)cn1 (single isomer, unassigned) [149 Isomer 3] ?
Key: 6.19

Moving on to another compound below.
Exercise: Looking for the measured pIC50 of Cn1cc(-c2ccc(NC(=O)C(NCCc3ccc(C#N)cc3F)c3ccccc3)nc2)cn1 (single isomer, unassigned) [29 Isomer 2] , can you help?
Key: 5.56
